Tested on: CP252
assay: qHTS profiling for inhibitors of Plasmodium falciparum proliferation (AID 504749); note: nearly all actives have a fitted effect of over 60% in size
measurement.parameters: P. falciparum in erythrocytes, SYBR Green DNA, 72 h; series mostly up to 28.7 µM
Results filed as inconclusive are left out. The source made the active and inactive calls. Calls come from the whole dose curve; as a rule, active = well fitted inhibition curve with a large enough effect; inconclusive = small, poorly fitted or top-dose-only effect; inactive = flat fitted curve, though single readings scatter.
Just give me one of these, please: active, inactive

Known results for molecules:
>>> assigned_label("O=C1N(c2ccccc2)c2ccccc2C1(Cc1ccncc1)Cc1ccncc1")
"inactive"
>>> assigned_label("NS(=O)(=O)c1cc2c(cc1Cl)NCNS2(=O)=O")
"inactive"
>>> assigned_label("CN(Cc1cnc2nc(N)nc(N)c2n1)c1ccc(C(=O)N[C@@H](CCC(=O)O)C(=O)O)cc1")
"inactive"
>>> assigned_label("CC(=O)OCC(CCn1cnc2cnc(N)nc21)COC(C)=O")
"inactive"
>>> assigned_label("CN1C(C(=O)Nc2ccccn2)=C(O)c2ccccc2S1(=O)=O")
"inactive"
>>> assigned_label("Cn1c(=O)c2[nH]cnc2n(C)c1=O")
"inactive"
>>> assigned_label("CCOC(=O)c1ncn2c1CN(C)C(=O)c1cc(F)ccc1-2")
"inactive"
>>> assigned_label("CN(C)CCC=C1c2ccccc2C=Cc2ccccc21")
"inactive"
>>> assigned_label("CCOC(=O)Nc1ccc(NCc2ccc(F)cc2)nc1N")
"active"

What classification did Cn1cnc2c1c(=O)[nH]c(=O)n2C end up with in this test?
inactive
